system: cocultures of 9L/FPGS and 9L cells; experiment: Bystander effect study, cocultures of 9L/FPGS and 9L cells; format: cell-based, rat; details: Rattus norvegicus, 4 h, coculture 1% 9L/FPGS, 4 hrs drug exposure, FIG. 4b; read-out: ED50 (the source's name)
measurement.label: pEC50
Entry type: numeric. Quantity: pEC50, the -log10 of concentration in molar units.

Task item: # value lookup — system cocultures of 9L/FPGS and 9L cells, readout pEC50, item CCC(Cc1cnc2nc(N)nc(N)c2n1)c1ccc(C(=O)N[C@@H](CCC(=O)O)C(=O)O)cc1 (stereo partly shown) [EDX, Edatrexate]
Reply: 6.22

* * *

tested on: 9L/FPGS cells; experiment: [3H]MTX accumulation and thin layer chromatography of MTX polyglutamates in 9L/FPGS cells; details: 24 hour exposure to 2 μM MTX, TLC
Can you tell me POLYGLUTAMATE DISTRIBUTION (percentages of total sample lane radioactivity) for the items I'm about to list?
Write it as a number; the unit % goes unstated.

Task item: Given the entry CN(Cc1cnc2nc(N)nc(N)c2n1)c1ccc(C(=O)NC(CCC(=O)NC(CCC(=O)NC(CCC(=O)O)C(=O)O)C(=O)O)C(=O)O)cc1 (centres unmarked) [MTX-G2] , report its measured POLYGLUTAMATE DISTRIBUTION (percentages of total sample lane radioactivity).
Reply: 19

Task item: Please give the measured POLYGLUTAMATE DISTRIBUTION (percentages of total sample lane radioactivity) for this compound: CN(Cc1cnc2nc(N)nc(N)c2n1)c1ccc(C(=O)NC(CCC(=O)NC(CCC(=O)O)C(=O)O)C(=O)O)cc1 (centres unmarked) [MTX-G1]
Reply: 22

Task item: Query: POLYGLUTAMATE DISTRIBUTION (percentages of total sample lane radioactivity); subject: CN(Cc1cnc2nc(N)nc(N)c2n1)c1ccc(C(=O)NC(CCC(=O)NC(CCC(=O)NC(CCC(=O)NC(CCC(=O)NC(CCC(=O)NC(CCC(=O)O)C(=O)O)C(=O)O)C(=O)O)C(=O)O)C(=O)O)C(=O)O)cc1 (centres unmarked) [MTX-G5]
Reply: 3

Task item: Entry CN(Cc1cnc2nc(N)nc(N)c2n1)c1ccc(C(=O)NC(CCC(=O)NC(CCC(=O)NC(CCC(=O)NC(CCC(=O)NC(CCC(=O)O)C(=O)O)C(=O)O)C(=O)O)C(=O)O)C(=O)O)cc1 (centres unmarked) [MTX-G4] : reported POLYGLUTAMATE DISTRIBUTION (percentages of total sample lane radioactivity) = ?
Reply: 28

Task item: Which POLYGLUTAMATE DISTRIBUTION (percentages of total sample lane radioactivity) value is on record for CN(Cc1cnc2nc(N)nc(N)c2n1)c1ccc(C(=O)NC(CCC(=O)NC(CCC(=O)NC(CCC(=O)NC(CCC(=O)O)C(=O)O)C(=O)O)C(=O)O)C(=O)O)cc1 (centres unmarked) [MTX-G3] ?
Reply: 18

* * *

test: in vivo; conditions: nude, mouse, ip
measurement.label: MTD
// unit must come after the numeric part

Task item: Requested read-out: MTD. Entry: CCC(Cc1cnc2nc(N)nc(N)c2n1)c1ccc(C(=O)N[C@@H](CCC(=O)O)C(=O)O)cc1 (some centres unmarked) [EDX, Edatrexate]
Reply: 3 mg/kg/day

Task item: Would you kindly share the measured MTD for CN(Cc1cnc2nc(N)nc(N)c2n1)c1ccc(C(=O)N[C@@H](CCC(=O)O)C(=O)O)cc1 [MTX, Amethopterin] ?
Reply: 9 mg/kg/day
